Tested on: OVCAR-5 ovarian
ASSAY_SUMMARY: NCI tumour cell line growth inhibition, 48 h
MEASURED_PARAMETER: GI50

COCCOCCOCCOCCOc1ccc2c(c1)C(=O)c1nc3ncccc3c(=O)n1-2 : 1.78 µM
CN1C=CN(Cc2ccc(-c3ccccn3)nc2)[CH-]1.CN1C=CN(Cc2ccc(-c3ccccn3)nc2)[CH-]1.[Au+3] : 5.84 µM
Fc1cc(Nc2ccc3c(OCCCN4CCOCC4)cccc3n2)ccc1Cl : 2.13 µM

Exam item: Reported GI50, molecule `COCCn1cc(-c2csc(-c3c[nH]c4ccc(F)cc34)n2)c2cccnc21` : ____
Marked response: 10.1 µM

Exam item: Record request: GI50 value, item `Brc1ccc2[nH]cc(-c3nc(-c4c[nH]c5ccncc45)cs3)c2c1`
Marked response: 1.79 µM

Exam item: Give the measured GI50 of NC(=NC1C2CC3CC(C2)CC1C3)Nc1ccc(I)cc1 (stereo unspecified) .
Marked response: 4.5 µM

Exam item: Name the recorded GI50 for O.O=[Se](=O)(O)O.[NH-]C1CCCCC1[NH-].[Pt+2] (stereo unspecified) .
Marked response: 26.7 µM

Exam item: State the recorded GI50 for this entry: `COc1cc(C(=O)c2c(-c3ccccc3)oc3ccccc23)cc(OC)c1O`
Marked response: 4.64 µM

###

Test system: SNB-19 CNS
ASSAY_SUMMARY: NCI tumour cell line growth inhibition, 48 h
MEASURED_PARAMETER: TGI

Examples with their reported TGI follow.
Cn1cnc([N+](=O)[O-])c1Sc1nncc2[nH]cnc12 : > 100 µM
CCCC/C(C)=N/NC(N)=S : > 100 µM

Exam item: Missing value: TGI, SNB-19 CNS, entry `C=C1C(=O)O[C@H]2[C@@H](O)[C@H](C)CCC/C(C)=C/CC[C@@]3(C)O[C@@H]3C[C@@H]12` . Fill in?
Marked response: 37.5 µM

Exam item: Checklist item: TGI tested on SNB-19 CNS, entry `CC(=O)Nc1[nH]c(=O)[nH]c(=O)c1N(C(C)=O)C(C)=O` , value?
Marked response: > 100 µM

Exam item: Can you look up TGI on SNB-19 CNS for `NC(=O)Nc1n[nH]c(-c2ccccc2)n1` ?
Marked response: > 100 µM

Exam item: Report TGI for `CNc1ccc([N+](=O)[O-])cc1C(=O)N1CCC[C@H]1CO` tested on SNB-19 CNS.
Marked response: > 100 µM

Exam item: Item: `O=c1c2c(=NCCCN3CCCC3)cc3c(=O)n(CCCN4CCCC4)c(=O)c4c(NCCCN5CCCC5)cc(c(O)n1CCCN1CCCC1)c2c4-3` Test system: SNB-19 CNS Read-out: TGI Value: ?
Marked response: 10.6 µM

###

Tested on: UO-31 renal
ASSAY_SUMMARY: NCI tumour cell line growth inhibition, 48 h
MEASURED_PARAMETER: TGI (µM)
Report the figure in µM without appending any unit label.

# annotated cases, reported TGI shown
CC(=O)OCC1OC(O[C@@H]2C[C@H]3C(C)(C)[C@H](OC(C)=O)CC[C@]3(C)[C@H]3CC[C@@H]4[C@]5(CC[C@@]4(C)[C@@]32C)O[C@@H]([C@H](O)C(C)(C)O)C[C@@H]5C)C(O)C(O)C1O (stereo partly drawn) : 20.8
Cc1ccc(N=Nc2cc(=O)[nH]c(=O)[nH]2)cc1C : 32.6
COc1cccc(C2c3cc4c(cc3OC(N3CCOCC3)C2C)OCO4)c1 (stereo not drawn) : 43.4

Switching to the query record.
Exam item: If you can, please state the reported TGI value of `C[C@@H]1CC[C@H]2C(CN3CCN(CC4=C(C(F)(F)F)O[C@@H]5O[C@@]6(C)CC[C@H]7[C@H](C)CC[C@@H]4[C@@]57OO6)CC3)=C(C(F)(F)F)O[C@@H]3O[C@@]4(C)CC[C@@H]1[C@]32OO4` .
Marked response: 85.8
